Study Target: UGT1A6 (Homo sapiens, UniProt P19224)
Sequence (P19224 27-532): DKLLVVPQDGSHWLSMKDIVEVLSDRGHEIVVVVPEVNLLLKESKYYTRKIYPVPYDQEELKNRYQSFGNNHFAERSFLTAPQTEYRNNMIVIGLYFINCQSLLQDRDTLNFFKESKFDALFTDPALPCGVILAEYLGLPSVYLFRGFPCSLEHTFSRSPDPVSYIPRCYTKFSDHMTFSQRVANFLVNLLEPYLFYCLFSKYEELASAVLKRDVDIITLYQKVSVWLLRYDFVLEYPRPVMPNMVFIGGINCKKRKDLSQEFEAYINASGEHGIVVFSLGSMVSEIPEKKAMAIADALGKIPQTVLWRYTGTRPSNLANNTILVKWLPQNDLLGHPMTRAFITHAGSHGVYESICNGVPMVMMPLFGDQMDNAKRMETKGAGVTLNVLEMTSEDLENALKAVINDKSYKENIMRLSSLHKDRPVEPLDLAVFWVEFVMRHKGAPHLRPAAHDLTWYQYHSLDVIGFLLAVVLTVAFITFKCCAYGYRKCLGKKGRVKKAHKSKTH
Test Name: Serotonin glucuronidation, treated intact UGT1A6-infected Sf9 cells
Measured IC50 by item
Provide only the numeric value, understood in µM.

[
  {
    "Molecular String": "Cc1cc(O)c2c(=O)c3c(O)cc(O)c4c5c(O)cc(O)c6c(=O)c7c(O)cc(C)c8c1c2c(c34)c(c78)c65",
    "Result Units": "µM",
    "IC50": 0.59
  }
]

Req: Which IC50 value belongs to `COc1c(C[C@@H](C)OC(=O)Oc2ccc(O)cc2)c2c3c(C[C@@H](C)OC(=O)c4ccccc4)c(OC)c(=O)c4c(O)cc(OC)c(c5c(OC)cc(O)c(c1=O)c52)c43` ?
Resp: 0.5

Req: # repeat for `COc1cc(/C=C/C(=O)CC(=O)/C=C/c2ccc(O)c(OC)c2)ccc1O`
Resp: 64.9

Reference source: paper PMC6170201
